test system: ESBL Klebsiella pneumonia clinical strain 63575; format: cell-based
Residues, ends and D or L forms follow the SMILES beside them.
PROPERTY: MIC (µM)

CC[C@H](C)[C@H](NC(=O)[C@@H](N)CCCCN)C(=O)N[C@@H](Cc1c[nH]c2ccccc12)C(=O)N[C@@H](Cc1c[nH]c2ccccc12)C(=O)N[C@@H](Cc1c[nH]c2ccccc12)C(=O)N[C@@H](Cc1c[nH]c2ccccc12)C(=O)N[C@@H](CCCNC(=N)N)C(=O)N[C@@H](CCCCN)C(=O)N[C@@H](CCCNC(=N)N)C(N)=O [HHC8, KIWWWWRKR] (H-KIWWWWRKR-NH2; N-terminus assumed) ... 47
CC[C@H](C)[C@H](NC(=O)[C@H](Cc1ccccc1)NC(=O)[C@H](CCCCN)NC(=O)[C@H](Cc1ccccc1)NC(=O)[C@H](CCCNC(=N)N)NC(=O)[C@@H](N)CCCNC(=N)N)C(=O)N[C@@H](CCCNC(=N)N)C(=O)N[C@@H](Cc1c[nH]c2ccccc12)C(=O)N[C@@H](Cc1c[nH]c2ccccc12)C(N)=O [HHC100, RRFKFIRWW] (H-RRFKFIRWW-NH2; N-terminus assumed) ... 49
CC[C@H](C)[C@H](NC(=O)[C@H](CCCNC(=N)N)NC(=O)[C@H](CCCCN)NC(=O)[C@@H](NC(=O)[C@H](Cc1c[nH]c2ccccc12)NC(=O)[C@H](Cc1c[nH]c2ccccc12)NC(=O)[C@H](Cc1c[nH]c2ccccc12)NC(=O)[C@H](CCCNC(=N)N)NC(=O)[C@@H](N)CC(C)C)[C@@H](C)CC)C(N)=O [HHC57, LRWWWIKRI] (H-LRWWWIKRI-NH2; N-terminus assumed) ... 50
CC[C@H](C)[C@H](NC(=O)[C@H](Cc1c[nH]c2ccccc12)NC(=O)[C@H](Cc1c[nH]c2ccccc12)NC(=O)[C@H](CCCCN)NC(=O)[C@H](CC(C)C)NC(=O)[C@H](CCCNC(=N)N)NC(=O)[C@H](CCCCN)NC(=O)[C@@H](N)CCCNC(=N)N)C(=O)N[C@@H](Cc1ccc(O)cc1)C(N)=O [HHC66, RKRLKWWIY] (H-RKRLKWWIY-NH2; N-terminus assumed) ... 50
CC[C@H](C)[C@H](NC(=O)[C@H](CCCCN)NC(=O)[C@H](Cc1c[nH]c2ccccc12)NC(=O)[C@H](Cc1c[nH]c2ccccc12)NC(=O)[C@H](CCCNC(=N)N)NC(=O)[C@@H](N)Cc1c[nH]c2ccccc12)C(=O)N[C@@H](Cc1c[nH]c2ccccc12)C(=O)N[C@@H](CCCCN)C(=O)N[C@@H](CCCNC(=N)N)C(N)=O [HHC20, WRWWKIWKR] (H-WRWWKIWKR-NH2; N-terminus assumed) ... 24

* * *

Below, each of the compounds is paired with its reported MIC S. typhi value.
system: wild-type Salmonella enterica ssp. typhimurium; format: cell-based
Residues, ends and D or L forms follow the SMILES beside them.
PROPERTY: MIC S. typhi (µg/mL)

CC(C)C[C@H](NC(=O)[C@@H](N)Cc1ccccc1)C(=O)N1CCC[C@H]1C(=O)N[C@@H](CCCCN)C(=O)N[C@@H](CCCCN)C(=O)N[C@@H](Cc1ccccc1)C(=O)N[C@@H](CCCNC(=N)N)C(=O)N[C@@H](Cc1c[nH]c2ccccc12)C(=O)N[C@@H](Cc1c[nH]c2ccccc12)C(=O)N[C@@H](CCCCN)C(=O)N[C@@H](Cc1ccc(O)cc1)C(=O)N[C@@H](CCCNC(=N)N)C(=O)N[C@@H](CCCCN)C(N)=O [HH972, FLPKKFRWWKYRK] (H-FLPKKFRWWKYRK-NH2; N-terminus assumed) ... 31
CC[C@H](C)[C@H](N)C(=O)N[C@@H](CC(C)C)C(=O)N1CCC[C@H]1C(=O)N[C@@H](Cc1c[nH]c2ccccc12)C(=O)N[C@@H](CCCCN)C(=O)N[C@@H](Cc1c[nH]c2ccccc12)C(=O)N1CCC[C@H]1C(=O)N[C@@H](Cc1c[nH]c2ccccc12)C(=O)N[C@@H](Cc1c[nH]c2ccccc12)C(=O)N1CCC[C@H]1C(=O)N[C@@H](Cc1c[nH]c2ccccc12)C(=O)N[C@@H](CCCNC(=N)N)C(=O)N[C@@H](CCCNC(=N)N)C(N)=O [Indolicidin, ILPWKWPWWPWRR-NH2, reference compound] ... 31

* * *

Below, each of the compounds is paired with its reported MIC value.
tested on: multidrug resistant Brazilian clinical isolates of P. aeruginosa; assay type: cell-based, Pseudomonas aeruginosa
Residues, ends and D or L forms follow the SMILES beside them.
PROPERTY: MIC (µM)

CC[C@H](C)[C@H](NC(=O)[C@H](CCCCN)NC(=O)[C@H](Cc1c[nH]c2ccccc12)NC(=O)[C@H](Cc1c[nH]c2ccccc12)NC(=O)[C@H](CCCNC(=N)N)NC(=O)[C@@H](N)Cc1c[nH]c2ccccc12)C(=O)N[C@@H](Cc1c[nH]c2ccccc12)C(=O)N[C@@H](CCCCN)C(=O)N[C@@H](CCCNC(=N)N)C(N)=O [HHC20, WRWWKIWKR] (H-WRWWKIWKR-NH2; N-terminus assumed) ... 24
CC[C@H](C)[C@H](NC(=O)[C@H](CCCCN)NC(=O)[C@H](Cc1c[nH]c2ccccc12)NC(=O)[C@@H](N)CCCCN)C(=O)N[C@@H](Cc1ccccc1)C(=O)N[C@@H](CCCNC(=N)N)C(=O)N[C@@H](CCCNC(=N)N)C(=O)N[C@@H](Cc1c[nH]c2ccccc12)C(=O)N[C@@H](Cc1c[nH]c2ccccc12)C(N)=O [HHC71, KWKIFRRWW] (H-KWKIFRRWW-NH2; N-terminus assumed) ... 24
N=C(N)NCCC[C@H](NC(=O)[C@H](CCCNC(=N)N)NC(=O)[C@H](CCCCN)NC(=O)[C@H](Cc1c[nH]c2ccccc12)NC(=O)[C@H](Cc1c[nH]c2ccccc12)NC(=O)[C@H](CCCCN)NC(=O)[C@H](CCCCN)NC(=O)[C@@H](N)Cc1c[nH]c2ccccc12)C(=O)N[C@@H](Cc1c[nH]c2ccccc12)C(N)=O [HHC48, WKKWWKRRW] (H-WKKWWKRRW-NH2; N-terminus assumed) ... 46
CC[C@H](C)[C@H](NC(=O)[C@H](Cc1c[nH]c2ccccc12)NC(=O)[C@H](Cc1c[nH]c2ccccc12)NC(=O)[C@H](CCCCN)NC(=O)[C@H](CC(C)C)NC(=O)[C@H](CCCNC(=N)N)NC(=O)[C@H](CCCCN)NC(=O)[C@@H](N)CCCNC(=N)N)C(=O)N[C@@H](Cc1ccc(O)cc1)C(N)=O [HHC66, RKRLKWWIY] (H-RKRLKWWIY-NH2; N-terminus assumed) ... 50
N=C(N)NCCC[C@H](NC(=O)[C@H](Cc1c[nH]c2ccccc12)NC(=O)[C@H](CCCCN)NC(=O)[C@H](CCCCN)NC(=O)[C@H](Cc1c[nH]c2ccccc12)NC(=O)[C@H](Cc1c[nH]c2ccccc12)NC(=O)[C@H](CCCNC(=N)N)NC(=O)[C@H](CCCCN)NC(=O)[C@@H](N)Cc1c[nH]c2ccccc12)C(N)=O [HHC45, WKRWWKKWR] (H-WKRWWKKWR-NH2; N-terminus assumed) ... 46
CC(C)C[C@H](NC(=O)[C@H](Cc1c[nH]c2ccccc12)NC(=O)[C@H](Cc1c[nH]c2ccccc12)NC(=O)[C@H](CCCCN)NC(=O)[C@H](Cc1c[nH]c2ccccc12)NC(=O)[C@H](CCCNC(=N)N)NC(=O)[C@H](CCCNC(=N)N)NC(=O)[C@H](Cc1c[nH]c2ccccc12)NC(=O)[C@@H](N)CCCNC(=N)N)C(N)=O [HHC9, RWRRWKWWL] (H-RWRRWKWWL-NH2; N-terminus assumed) ... 12

* * *

test system: ESBL Klebsiella pneumonia clinical strain 63575; format: cell-based
Residues, ends and D or L forms follow the SMILES beside them.
PROPERTY: MIC (µM)

CC[C@H](C)[C@H](NC(=O)[C@H](CCCCN)NC(=O)[C@H](Cc1c[nH]c2ccccc12)NC(=O)[C@@H](N)CCCCN)C(=O)N[C@@H](Cc1ccccc1)C(=O)N[C@@H](CCCNC(=N)N)C(=O)N[C@@H](CCCNC(=N)N)C(=O)N[C@@H](Cc1c[nH]c2ccccc12)C(=O)N[C@@H](Cc1c[nH]c2ccccc12)C(N)=O [HHC71, KWKIFRRWW] (H-KWKIFRRWW-NH2; N-terminus assumed) ... 97

* * *

Below, each of the molecules is paired with its reported Chemokine induction MCP-3 value.
tested on: MCP-3 release by human PBMC; experiment: Chemokine induction in PBMC (capture ELISA); assay type: cell-based; conditions: 100 μg/ml peptide, background (6) subtracted
Residues, ends and D or L forms follow the SMILES beside them.
PROPERTY: Chemokine induction MCP-3 (pg/mL)

CC[C@H](C)[C@H](NC(=O)[C@@H](N)CCCCN)C(=O)N[C@@H](Cc1c[nH]c2ccccc12)C(=O)N[C@@H](Cc1c[nH]c2ccccc12)C(=O)N[C@@H](Cc1c[nH]c2ccccc12)C(=O)N[C@@H](Cc1c[nH]c2ccccc12)C(=O)N[C@@H](CCCNC(=N)N)C(=O)N[C@@H](CCCCN)C(=O)N[C@@H](CCCNC(=N)N)C(N)=O [HHC8, KIWWWWRKR] (H-KIWWWWRKR-NH2; N-terminus assumed) ... 4
CC[C@H](C)[C@H](NC(=O)[C@H](CCCNC(=N)N)NC(=O)[C@@H](N)CCCCN)C(=O)N[C@@H](CCSC)C(=O)N[C@@H](CCCCN)C(=O)N[C@@H](CC(C)C)C(=O)N[C@@H](CCCCN)C(=O)N[C@@H](CCSC)C(=O)N[C@@H](CCCNC(=N)N)C(N)=O [HHC133, KRIMKLKMR] (H-KRIMKLKMR-NH2; N-terminus assumed) ... 2
CC(C)C[C@H](NC(=O)[C@H](Cc1c[nH]c2ccccc12)NC(=O)[C@H](Cc1c[nH]c2ccccc12)NC(=O)[C@H](CCCCN)NC(=O)[C@H](Cc1c[nH]c2ccccc12)NC(=O)[C@H](CCCNC(=N)N)NC(=O)[C@H](CCCNC(=N)N)NC(=O)[C@H](Cc1c[nH]c2ccccc12)NC(=O)[C@@H](N)CCCNC(=N)N)C(N)=O [HHC9, RWRRWKWWL] (H-RWRRWKWWL-NH2; N-terminus assumed) ... 48
